These measurements were taken from paper PMC10650955.

Biological target: 15N-labelled NDM-1 (Klebsiella pneumoniae, UniProt C7C422)
Construct: made in house
Sequence (C7C422 29-270 limits assumed): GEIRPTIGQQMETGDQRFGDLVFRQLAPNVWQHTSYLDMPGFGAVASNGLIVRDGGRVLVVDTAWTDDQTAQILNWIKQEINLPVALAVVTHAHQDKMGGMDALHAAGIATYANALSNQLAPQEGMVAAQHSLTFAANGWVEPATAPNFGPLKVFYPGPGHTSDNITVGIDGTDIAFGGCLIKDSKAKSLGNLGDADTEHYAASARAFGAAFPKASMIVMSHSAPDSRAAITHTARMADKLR
Assay: 1H,15N HSQC NMR chemical shift perturbation titration, NDM-1
Assay type: binding
Details: Estimated binding constant (Kd), residue 070F, Table S5; per-residue fit, NDM-1 070F
Measured Kd by item
Only the number, expressed in mM, is required.

Take a look at these entries with their results.
O=C(Cc1cccs1)NC(C1CCCCN1)P(=O)(O)O (stereo not shown)	4.9
O=C(Cc1ccsc1)NC(C1CCCCN1)P(=O)(O)O (stereo not shown)	2.54
O=C(NC(C1CCCCN1)P(=O)(O)O)c1ccsc1 (stereo not shown)	15.2

We now examine a further molecule.
Inquiry: Param item = O=C(NC(C1CCCCN1)P(=O)(O)O)c1cccs1 (stereo not shown) ; retrieve measured Kd.
Reply text: 2.92

---

Biological target: 15N-labelled NDM-1 (Klebsiella pneumoniae)
Construct: made in house
Assay: 1H,15N HSQC NMR chemical shift perturbation titration, NDM-1
Assay type: binding
Details: Estimated binding constant (Kd), residue 143A, Table S5; per-residue fit, NDM-1 143A
measurement_label: Kd (mM)
The response must be a number in mM with no trailing unit.

Inquiry: Would you mind telling me what Kd value was observed for O=C(NC(C1CCCCN1)P(=O)(O)O)c1ccsc1 (stereo not shown) ?
Reply text: 8.49

---

Target: 15N-labelled NDM-1 (Klebsiella pneumoniae, UniProt C7C422)
Construct: made in house
Experiment: 1H,15N HSQC NMR chemical shift perturbation titration, NDM-1
Assay type: binding
Conditions: Estimated binding constant (Kd), residue 091T, Table S5; per-residue fit, NDM-1 091T
measurement_label: Kd
Reply with the number and its unit after it.

Solved entries (count: 2):
O=C(NC(C1CCCCN1)P(=O)(O)O)c1cccs1 (stereo not drawn)	5.76 mM
O=C(NC(C1CCCCN1)P(=O)(O)O)c1ccsc1 (stereo not drawn)	4.17 mM

Below: the item to evaluate.
Inquiry: Look up Kd: O=C(Cc1ccsc1)NC(C1CCCCN1)P(=O)(O)O (stereo not drawn)
Reply text: 2.11 mM

---

These compounds were tested on VIM-2 (Escherichia coli, UniProt Q5U7L7); log10(IC50) is the recorded read-out.
On a log10 scale: recorded IC50, unit µM.

Consider the worked cases shown below.
O=C(Cc1csc2ccccc12)NC(C1CCCCN1)P(=O)(O)O (centres unmarked) [Compound 5l-2]	1.97
O=C(NC(C1CCCCN1)P(=O)(O)O)c1csc2c1CCCC2 (single isomer, unassigned) [Compound 5e-1]	1.84
Cl.O=C(NC(C1CCCCN1)P(=O)(O)O)c1scc2c1CCCC2 (single isomer, unassigned) [Compound 5f-1]	1.57
Cl.O=C(NC(C1CCCCN1)P(=O)(O)O)c1csc2c1CCCC2 (single isomer, unassigned) [Compound 5e-2]	1.66
O=C(NC(C1CCCCN1)P(=O)(O)O)c1cccs1 (centres unmarked) [Compound 5b-1]	2.07
O=C(NC(C1CCCCN1)P(=O)(O)O)c1ccsc1 (centres unmarked) [Compound 5c-1]	1.52
O=C(NC(C1CCCCN1)P(=O)(O)O)c1csc2ccccc12 (centres unmarked) [Compound 5h-2]	1.06
Cl.O=C(Cc1cc2ccccc2s1)NC(C1CCCCN1)P(=O)(O)O (single isomer, unassigned) [Compound 5k-1]	1.75

Inquiry: For the record Cl.O=C(NC(C1CCCCN1)P(=O)(O)O)c1cc2c(s1)CCCC2 (centres unmarked) [Compound 5d-2] , what value of log10(IC50) is listed for VIM-2 (Escherichia coli, UniProt Q5U7L7)?
Reply text: 0.65

Inquiry: Short answer please: log10(IC50), VIM-2 (Escherichia coli, UniProt Q5U7L7), entry O=C(NC(C1CCCCN1)P(=O)(O)O)c1cc2ccccc2s1 (centres unmarked) [Compound 5g-2]
Reply text: 0.61

Inquiry: Find log10(IC50) (VIM-2 (Escherichia coli, UniProt Q5U7L7)) for the entry O=C(Cc1cccs1)NC(C1CCCCN1)P(=O)(O)O (centres unmarked) [Compound 5i-2]
Reply text: 2.52

Inquiry: VIM-2 (Escherichia coli, UniProt Q5U7L7) / log10(IC50) / Cl.O=C(NC(C1CCCCN1)P(=O)(O)O)c1scc2c1CCCC2 (single isomer, unassigned) [Compound 5f-2] : value?
Reply text: 1.27

Inquiry: Record O=C(NC(C1CCCCN1)P(=O)(O)O)c1csc2ccccc12 (centres unmarked) [Compound 5h-1] : what is its log10(IC50) with VIM-2 (Escherichia coli, UniProt Q5U7L7)?
Reply text: 1.61

Inquiry: Query the reported log10(IC50) for VIM-2 (Escherichia coli, UniProt Q5U7L7); item: O=C(Cc1ccsc1)NC(C1CCCCN1)P(=O)(O)O (centres unmarked) [Compound 5j-1]
Reply text: 2.50

Inquiry: State its log10(IC50) on VIM-2 (Escherichia coli, UniProt Q5U7L7): O=C(NC(C1CCCCN1)P(=O)(O)O)c1ccsc1 (centres unmarked) [Compound 5c-2]
Reply text: 1.16

Inquiry: So what log10(IC50) did Cc1[nH]c(=S)sc1CC(=O)NC(C1CCCCN1)P(=O)(O)O (centres unmarked) [Compound 5a-1] get with VIM-2 (Escherichia coli, UniProt Q5U7L7)?
Reply text: 2.55

Inquiry: Please state recorded log10(IC50) (tested on VIM-2 (Escherichia coli, UniProt Q5U7L7)) of O=C(NC(C1CCCCN1)P(=O)(O)O)c1cccs1 (centres unmarked) [Compound 5b-2]
Reply text: 0.86

Inquiry: # returns recorded log10(IC50) (system: VIM-2 (Escherichia coli, UniProt Q5U7L7)) for Cl.O=C(NC(C1CCCCN1)P(=O)(O)O)c1cc2c(s1)CCCC2 (centres unmarked) [Compound 5d-1]
Reply text: 2.39

Inquiry: Give recorded log10(IC50) with VIM-2 (Escherichia coli, UniProt Q5U7L7) for the following compound: O=C(Cc1cc2ccccc2s1)NC(C1CCCCN1)P(=O)(O)O (single isomer, unassigned) [Compound 5k-2]
Reply text: 1.46

Inquiry: What is its log10(IC50) for VIM-2 (Escherichia coli, UniProt Q5U7L7)? Entry: O=C(NC(C1CCCCN1)P(=O)(O)O)c1cc2ccccc2s1 (centres unmarked) [Compound 5g-1]
Reply text: 1.65
